# Target or system: human recombinant mGluR5 receptor (Homo sapiens, UniProt P41594)
# Construct: expressed in transfected cells; expression induced with doxycycline
# Sequence (P41594 21-1212): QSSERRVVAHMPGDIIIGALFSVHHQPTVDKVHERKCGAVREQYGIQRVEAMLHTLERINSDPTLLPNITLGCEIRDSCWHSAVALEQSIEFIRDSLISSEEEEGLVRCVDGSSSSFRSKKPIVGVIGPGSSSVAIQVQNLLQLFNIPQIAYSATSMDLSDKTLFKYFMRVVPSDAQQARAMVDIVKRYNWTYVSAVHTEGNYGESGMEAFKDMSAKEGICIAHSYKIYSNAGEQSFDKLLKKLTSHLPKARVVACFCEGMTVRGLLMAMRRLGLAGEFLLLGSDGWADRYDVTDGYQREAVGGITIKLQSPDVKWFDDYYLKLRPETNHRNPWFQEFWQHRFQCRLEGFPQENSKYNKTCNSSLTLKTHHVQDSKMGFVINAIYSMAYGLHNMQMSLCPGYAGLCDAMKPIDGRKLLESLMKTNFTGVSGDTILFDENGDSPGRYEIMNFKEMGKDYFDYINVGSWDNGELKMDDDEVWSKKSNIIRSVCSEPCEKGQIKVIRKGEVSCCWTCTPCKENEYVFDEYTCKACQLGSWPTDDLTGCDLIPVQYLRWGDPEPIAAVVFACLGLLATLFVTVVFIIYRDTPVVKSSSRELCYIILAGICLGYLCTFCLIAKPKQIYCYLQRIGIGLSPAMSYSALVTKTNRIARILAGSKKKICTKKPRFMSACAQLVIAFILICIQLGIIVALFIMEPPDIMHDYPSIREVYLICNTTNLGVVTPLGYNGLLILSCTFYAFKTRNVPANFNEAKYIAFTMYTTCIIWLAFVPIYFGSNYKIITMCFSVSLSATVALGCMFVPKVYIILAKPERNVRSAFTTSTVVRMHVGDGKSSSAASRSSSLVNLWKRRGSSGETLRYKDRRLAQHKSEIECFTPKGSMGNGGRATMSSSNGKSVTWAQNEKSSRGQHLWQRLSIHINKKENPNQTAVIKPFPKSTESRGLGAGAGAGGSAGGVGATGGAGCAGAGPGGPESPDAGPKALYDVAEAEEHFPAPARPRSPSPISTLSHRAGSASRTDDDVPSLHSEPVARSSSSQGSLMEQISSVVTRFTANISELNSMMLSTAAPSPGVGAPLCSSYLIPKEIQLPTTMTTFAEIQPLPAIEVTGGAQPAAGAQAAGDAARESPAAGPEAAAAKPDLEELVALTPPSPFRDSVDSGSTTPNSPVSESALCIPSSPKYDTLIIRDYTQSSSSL
# Experiment description: mGluR5 in vitro functional assay (aequorin cell line, inhibition of glutamate EC80 response)
# Assay type: cell-based
# Experimental setup: Table 2; aequorin cell line expressing human mGluR5, reference agonist glutamate at EC80; obtained in duplicate; read-out: IC50
Please respond with reported IC50 for every item in the list.

>  <Molecule>
Oc1ccccc1N1CCc2oc(-c3ccccn3)nc2C1

>  <Target or system>
human recombinant mGluR5 receptor (Homo sapiens, UniProt P41594)

>  <Reading>
< 1000 nM

$$$$
>  <Molecule>
Cc1cccnc1-c1nc2c(o1)CCN(c1cccc(F)c1)C2

>  <Target or system>
human recombinant mGluR5 receptor (Homo sapiens, UniProt P41594)

>  <Reading>
> 10000 nM

$$$$
>  <Molecule>
N#Cc1cc(F)cc(-c2nc3c(o2)CCN(c2ccccn2)C3)c1

>  <Target or system>
human recombinant mGluR5 receptor (Homo sapiens, UniProt P41594)

>  <Reading>
< 10000 nM

$$$$

I would be grateful if you could provide IC50 for each of the following entries.
1. Clc1ccccc1N1CCc2oc(-c3ccncn3)nc2C1
2. Clc1cccc(Cl)c1N1CCc2oc(-c3ccccn3)nc2C1
3. Clc1cncc(N2CCCc3oc(-c4ccccn4)nc3C2)c1

Response:
< 10000 nM
< 1000 nM
< 1000 nM
